Assay: Inhibition of yeast alpha glucosidase at pH 6.8
Design: species or system Saccharomyces cerevisiae
Reported property: pIC50
Scale note: pIC50 = -log10(concentration in M).

Memo: OC[C@H]1NC(O)C[C@@H](O)[C@@H]1O (stereo not given in full) , reported pIC50: 4.58

The molecule identified as "Oc1cc(O)c2c(c1)Oc1ccc3ccccc3c1C2" registered its pIC50 at 4.46

For this molecule ( "O=c1c2cc3cc(O)ccc3cc2oc2cc(O)cc(O)c12" ), measured pIC50 is 5.24

The reported pIC50 of the molecule "O=c1c2cc3cccc(O)c3cc2oc2cc(O)cc(O)c12" was 5.10

Measured pIC50 of "O=c1c2c(O)cc(O)cc2oc2ccc3ccccc3c12" : 4.40

Per the record, "O=c1c2cc3ccccc3cc2oc2c([N+](=O)[O-])c(O)cc(O)c12" has pIC50 of 4.70

Short answer for "Oc1cc(O)c2c(c1)Oc1cc3ccccc3cc1C2" : pIC50 was 4.56

Reported pIC50 of "O=c1c2ccccc2oc2cc(O)cc(O)c12" : 3.79

The measured pIC50 associated with "O=c1c2cc3ccccc3cc2oc2cc(O)cc(O)c12" reads 5.03

Notebook: "COc1cc(O)c2c(=O)c3cc4ccccc4cc3oc2c1" , pIC50 read as 4.50
